Cited source: ChEMBL document CHEMBL4421722

Species: Rattus norvegicus
protocol-notes: Inhibition of rat recombinant geranylgeranyltransferase type I expressed in Escherichia coli assessed as residual enzyme activity for geranylgeranylation of RhoA at 50 uM incubated for 30 mins in presence of [3H]GGPP by scintillation counting assay relative to control
readout-type: Activity (%)

Answered examples (3):
Request: I am curious: what Activity value has been reported for CCCCS[C@@H]1C[C@@H](c2ccc(C)cc2)N(S(=O)(=O)c2ccccc2C)C[C@H]1C(=O)O ?
Response: 19.8

Request: Subsequent entry: C=CCS[C@H]1[C@@H](C(=O)O)[C@H](c2ccc(C#N)cc2)N(S(=O)(=O)c2ccc(C)cc2)[C@@H]1C(C)C
Response: 9.3

Request: Same for Cc1ccc(S(=O)(=O)N2[C@@H](c3ccc(Cl)cc3)C(C(=O)O)=CC[C@H]2c2ccc(Cl)c(Cl)c2)cc1
Response: 12.1

a: COc1cccc([C@@H]2C[C@@H](SCCc3ccccc3)[C@H](C(=O)O)CN2S(=O)(=O)c2ccc(C)cc2)c1
b: Cc1ccc([C@@H]2C[C@@H](SCCc3ccccc3)[C@H](C(=O)O)CN2S(=O)(=O)c2ccccc2C)cc1
Request: Decide: a or b , by lowest recorded Activity. Give the label of your selection.
Response: b
(b: 5.3%, a: 11.4%)
